test: physchem; conditions: 0.01 n hcl
PROPERTY_LABEL: solubility

Query: Given the entry C[C@H]1O[C@@H](O[C@H]2[C@@H](O)C[C@H](O[C@H]3[C@@H](O)C[C@H](O[C@H]4CC[C@@]5(C)[C@H](CC[C@@H]6[C@@H]5C[C@@H](O)[C@]5(C)[C@@H](C7=CC(=O)OC7)CC[C@]65O)C4)O[C@@H]3C)O[C@@H]2C)C[C@H](O)[C@@H]1O , report its measured solubility.
Result: ~78 µg/mL
